The origin of these recorded values is patent US20050209278A1.

testedOn: MMP-14 (Homo sapiens, UniProt P50281)
Construct: The catalytic domain enzyme was expressed in E. coli inclusion bodies, solubilized in urea; made in house
assayMethodText: In vitro MMP inhibition, Ki determination (fluorogenic substrate II)
Type: biochemical
runConditions: human recombinant enzyme (catalytic domain); 4 μM substrate II; room temperature, 1 hr; read-out: MMP-14 Ki
Method: Several hydroxamic acids and salts thereof were analyzed in in vitro assays to determine their ability to inhibit the MMP cleavage of peptide substrates. […] and IC50 constants were calculated from the assayed hydroxamic acid-MMP interactions. […] The assays from which the Ki determinations were made were performed as follows. […] In the absence of MMP inhibitory activity, substrate II was cleaved at the Gly-Leu bond resulting in an increase of relative fluorescence. […]
Structures can show the parent of a compound that is named as a salt.
readoutLabel: Ki (nM)

| compound | outputUnit | Ki |
| --- | --- | --- |
| COCCN1CCC(C(=O)NO)(S(=O)(=O)N2CCC(c3ccc(OCCCC(F)(F)F)cc3)CC2)CC1 [Example 20, Hydrochloride] | nM | 2670 |

P. CCCCOc1ccc(C2CCN(S(=O)(=O)C3(C(=O)NO)CCN(CCOC)CC3)CC2)cc1 [Example 16, Hydrochloride]
Q. O=C(NO)C1(S(=O)(=O)N2CCN(c3ccc(OC(F)(F)C(F)F)cc3)CC2)CCOCC1 [Example 4]
R. CCCCCc1ccc(N2CCN(S(=O)(=O)C3(C(=O)NO)CCN(CC)CC3)CC2)cc1F [Example 22, Hydrochloride]
Prompt line: Sort ascending by Ki. Field: ranking. Enter the labels in the order requested.
Response line: Q, P, R

----------
testedOn: MMP-14 (Homo sapiens, UniProt P50281)
Construct: The catalytic domain enzyme was expressed in E. coli inclusion bodies, solubilized in urea; made in house
assayMethodText: MMP-14 inhibition (in vitro Ki)
Format: biochemical
runConditions: Table 8; read-out: MMP-14 Ki
Structures can show the parent of a compound that is named as a salt.
readoutLabel: Ki (µM)

P. COCCC(CCOC)(C(=O)NO)S(=O)(=O)N1CCC(c2ccc(CCC(F)(F)C(F)(F)F)cn2)CC1 [Example A61, Hydrochloride]
Q. O=C(NO)C1(S(=O)(=O)N2CCC(CCCCC(F)(F)C(F)(F)F)CC2)CCOCC1
Prompt line: Identify the entry with the smaller Ki: P or Q . To answer, give the label that identifies your chosen option.
Response line: Q
(Q: 2.36 µM, P: 4.17 µM)

----------
testedOn: MMP-1 (Homo sapiens)
Construct: made in house; host or cells: MMP-1-transfected HT-1080 cells (spent media)
Sequence (P03956 100-469, species assumed): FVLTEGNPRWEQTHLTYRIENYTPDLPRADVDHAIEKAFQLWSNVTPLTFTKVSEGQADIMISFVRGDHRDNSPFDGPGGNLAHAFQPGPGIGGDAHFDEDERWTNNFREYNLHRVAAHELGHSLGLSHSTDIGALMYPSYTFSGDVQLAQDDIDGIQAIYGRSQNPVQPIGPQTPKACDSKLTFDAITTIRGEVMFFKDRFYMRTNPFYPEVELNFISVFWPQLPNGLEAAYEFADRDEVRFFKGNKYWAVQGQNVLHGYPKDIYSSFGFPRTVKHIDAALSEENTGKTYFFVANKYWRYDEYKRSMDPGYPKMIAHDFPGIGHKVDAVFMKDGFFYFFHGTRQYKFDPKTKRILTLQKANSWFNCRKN
assayMethodText: MMP-1 inhibition (in vitro Ki)
Assay type: biochemical
runConditions: Table 9; read-out: MMP-1 Ki (IC-50)
readoutLabel: Ki (µM)

| compoundStructure | experimentalResult |
| --- | --- |
| O=C(NO)C1(S(=O)(=O)N2CCC(c3ccc(CCC(F)(F)F)cn3)CC2)CCCC1 | 2.17 |
| N#Cc1ccc(N2CCN(S(=O)(=O)C3(C(=O)NO)CCOCC3)CC2)cc1F | 8.89 |
| O=C(CCCCC1CCN(S(=O)(=O)C2(C(=O)NO)CCOCC2)CC1)N1CCN(c2ccccc2)CC1 | 1.62 |
| CC(C)CC#Cc1ccc(C2CCN(S(=O)(=O)C3(C(=O)NO)CCOCC3)CC2)nc1 | 3.44 |

a. O=C(NO)C1(S(=O)(=O)N2CCN(c3ccc(-c4nnn(CC5CC5)n4)cc3)CC2)CCOCC1
b. CNC(=O)CCCCC1CCN(S(=O)(=O)C2(C(=O)NO)CCOCC2)CC1
c. Cn1nnc(-c2ccc(C3CCN(S(=O)(=O)C4(C(=O)NO)CCOCC4)CC3)cc2)n1
d. O=C(NO)C1(S(=O)(=O)N2CCC(c3ccc(CCc4cccs4)cn3)CC2)CCOCC1
Prompt line: Sort ascending by Ki. Field: ranking. Enter the labels in the order requested.
Response line: b, a, c, d

----------
testedOn: MMP-13 (Homo sapiens)
Construct: made in house; host or cells: baculovirus / insect cells
assayMethodText: In vitro MMP inhibition, Ki determination (fluorogenic substrate II)
Type: biochemical
runConditions: value outside parentheses; read-out: MMP-13 Ki
pKi: −log10 of the molar value.
readoutLabel: pKi

Some entries whose results are on file:
| compoundStructure | experimentalResult |
| --- | --- |
| CCCCOc1ccc(N2CCN(S(=O)(=O)C3(C(=O)NO)CCN(C(=O)c4ccccc4)CC3)CC2)cc1 | 9.41 |
| O=C(NO)C1(S(=O)(=O)N2CCN(c3ccc(CCCC(F)(F)F)c(F)c3)CC2)CCOCC1 | 9.33 |

P. O=C(NO)C1(S(=O)(=O)N2CCC(c3ccc(OCC(F)(F)C(F)F)cc3)CC2)CCN(CCN2CCOCC2)CC1
Q. CC(C)(C)c1ccc(-c2cnc(N3CCN(S(=O)(=O)C4(C(=O)NO)CCOCC4)CC3)s2)cc1
Prompt line: Identify the entry with the smaller pKi: P or Q . To answer, give the label that identifies your chosen option.
Response line: Q

----------
testedOn: MMP-14 (Homo sapiens)
Construct: The catalytic domain enzyme was expressed in E. coli inclusion bodies, solubilized in urea; made in house
assayMethodText: MMP-14 inhibition (in vitro Ki)
Format: biochemical
runConditions: Table 9; read-out: MMP-14 Ki (IC-50)
Measured Ki, listed per entry for reference.

| molecule | Ki |
| --- | --- |
| CCCC(F)(F)c1ccc(C2CCN(S(=O)(=O)C3(C(=O)NO)CCOCC3)CC2)nc1 [Example A156] | > 10 µM |
| O=C(/C=C/C=C/C1CCN(S(=O)(=O)C2(C(=O)NO)CCOCC2)CC1)N1C[C@H]2CCCC[C@H]2C1 [Example A81] | > 10 µM |
| O=C(NO)C1(S(=O)(=O)N2CCC(c3ccc(/C=C/C(F)(F)C(F)(F)F)cn3)CC2)CCOCC1 [Example A116] | 0.331 µM |
| CN(C(=O)CCCC1CCN(S(=O)(=O)C2(C(=O)NO)CCOCC2)CC1)c1ccccc1 [Example A143] | > 10 µM |
| CN(C(=O)CCCC1CCN(S(=O)(=O)C2(C(=O)NO)CCOCC2)CC1)C1CCCCC1 [Example A144] | > 10 µM |

Prompt line: Would you mind telling me what Ki value was observed for CCC(CC)(C(=O)NO)S(=O)(=O)N1CCC(c2ccc(OCC3CC3)cn2)CC1 [Example A124] ?
Response line: 7.29 µM

Prompt line: Would you mind telling me what Ki value was observed for CN(C(=O)CCCCC1CCN(S(=O)(=O)C2(C(=O)NO)CCOCC2)CC1)c1ccc(OC(F)(F)F)cc1 [Example A163] ?
Response line: > 10 µM

----------
testedOn: MMP-13 (Homo sapiens, UniProt P45452)
Construct: made in house; host or cells: baculovirus / insect cells
assayMethodText: In vitro MMP inhibition, Ki determination (fluorogenic substrate II)
Type: biochemical
runConditions: value not in parenthesis; read-out: MMP-13 Ki
pKi: −log10 of the molar value.
readoutLabel: pKi

| compoundStructure | pKi |
| --- | --- |
| CCCCOc1ccc(N2CCN(S(=O)(=O)C3(C(=O)NO)CCS(=O)(=O)CC3)CC2)cc1 | 8.40 |
| COCCN1CCC(C(=O)NO)(S(=O)(=O)N2CCN(c3ccc(OC(F)(F)F)cc3)CC2)CC1 | 9.01 |
| CCCCOc1ccc(N2CCN(S(=O)(=O)C3(C(=O)NO)CCOCC3)CC2)c(F)c1 | 9.41 |
| CCCCCc1ccc(N2CCN(S(=O)(=O)C3(C(=O)NO)CCOCC3)CC2)nn1 | 8.22 |
| CCCCOc1ccc(N2CCN(S(=O)(=O)C3(C(=O)NO)CCN(CCCC(F)(F)F)CC3)CC2)cc1 | 9.28 |
| COCCN1CCC(C(=O)NO)(S(=O)(=O)N2CCN(c3ccc(C)cc3)CC2)CC1 | 8.39 |

a. CC(C)CCc1ccc(N2CCN(S(=O)(=O)C3(C(=O)NO)CCOCC3)CC2)nc1
b. O=C(NO)C1(S(=O)(=O)N2CCN(c3ccc(SC(F)(F)F)cc3)CC2)CCOCC1
Prompt line: Rank a against b by their pKi values and give the higher one. To answer, give the label that identifies your chosen option.
Response line: a
(a: 9.64, b: 9.02)

----------
testedOn: MMP-13 (Homo sapiens)
Construct: made in house; host or cells: baculovirus / insect cells
assayMethodText: In vitro MMP inhibition, Ki determination (fluorogenic substrate II)
Format: biochemical
runConditions: MMP-13 Ki, human recombinant enzyme; 4 μM substrate II; room temperature, 1 hr
Where a name gives a salt, the structure may show the parent alone.
readoutLabel: Ki (nM)
Give a bare numeral; the unit nM is implied.

Prompt line: Would you mind telling me what Ki value was observed for CCCCc1cnc(N2CCN(S(=O)(=O)C3(C(=O)NO)CCOCC3)CC2)cn1 [Example 1, Dihydrochloride] ?
Response line: 1.82
